tested on: intracellular amastigotes of L. infantum; assay: Intracellular amastigotes susceptibility in THP-1-derived macrophages (infection index); format: cell-based, Leishmania infantum; details: SI for amastigote forms = CC50 THP-1 / IC50 L. infantum
RECORDED METRIC: SI (selectivity index)
Returns: the value as a bare number; no unit string appended.

Which SI (selectivity index) value is on record for CCOC(=O)C1CCC2(CC1)OOC1(OO2)C2CC3CC(C2)CC1C3 (stereo not drawn) ?
8.4

Next: Nc1ccnn1C(=O)C1CCC2(CC1)OOC1(O2)C2CC3CC(C2)CC1C3 (stereo not drawn)
2.1

Next: CCOC(=O)C1CCC2(CC1)OOC1(O2)C2CC3CC(C2)CC1C3 (stereo not drawn)
1.2

Next: C[C@@H]1[C@H](O)[C@@H](C)/C=C/C=C/C=C/C=C/C=C/C=C/C=C/[C@H](O[C@@H]2O[C@H](C)[C@@H](O)[C@H](N)[C@@H]2O)C[C@@H]2O[C@](O)(C[C@@H](O)C[C@@H](O)[C@H](O)CC[C@@H](O)C[C@@H](O)CC(=O)O[C@H]1C)C[C@H](O)[C@H]2C(=O)O [AmB, Amphotericin B, reference compound]
290

Next: Cl.Nc1ccnn1C(=O)C1CCC2(CC1)OOC1(O2)C2CC3CC(C2)CC1C3 (stereo not drawn) [OZ1•HCl]
5.9
